Where these numbers come from: the supplement of paper PMC11208160

Assay: recombinant UMI read abundance after kanamycin selection (control-corrected) (log10(CPM+1)); higher = more efficient recombination; extreme values may be limits of the assay; sequences stand for … in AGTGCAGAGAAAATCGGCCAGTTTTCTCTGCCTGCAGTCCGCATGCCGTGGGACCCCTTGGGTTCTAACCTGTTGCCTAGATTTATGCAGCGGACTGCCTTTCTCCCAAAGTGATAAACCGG…AGGTTGGTTTCACT; site = the 11-nt donor;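 note: IS621 bridge recombinase in Escherichia coli cells against a fixed T5 target plasmid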
endpoint: recombinant UMI read abundance (log10)

> print(dat)
                                 biosequence                                endpoint  datavalue
 1  CTACTAACATGGACCGGTTTTCCCGGTAATCCGTATTTGAA (site CTACTAACTTG)  recombinant UMI read abundance (log10)          0
 2  TTCCAGACATGGACCGGTTTTCCCGGTAATCCGTATTTGTA (site TTCCAGACTTA)  recombinant UMI read abundance (log10)       0.13
 3  CGATCAACATGGACCGGTTTTCCCGGTAATCCGTATTTGCT (site CGATCAGCTAG)  recombinant UMI read abundance (log10)          0
 4  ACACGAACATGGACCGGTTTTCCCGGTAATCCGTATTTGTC (site ACACGACCTGA)  recombinant UMI read abundance (log10)          0
 5  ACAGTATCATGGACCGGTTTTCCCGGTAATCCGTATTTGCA (site ACAGGATCTTT)  recombinant UMI read abundance (log10)          0
 6  GATAGGACATGGACCGGTTTTCCCGGTAATCCGTATTTGAC (site GATAGGACTGT)  recombinant UMI read abundance (log10)       2.34
 7  CCCTAGCCATGGACCGGTTTTCCCGGTAATCCGTATTTGCC (site CCCTAGCCTAG)  recombinant UMI read abundance (log10)    0.00741
 8  CTGGTATCATGGACCGGTTTTCCCGGTAATCCGTATTTGAC (site CTGGTATCTGT)  recombinant UMI read abundance (log10)       3.22
 9  CAACGCTCATGGACCGGTTTTCCCGGTAATCCGTATTTGAA (site CAAGGCTCTTT)  recombinant UMI read abundance (log10)    0.00387
10  AAGAAGACATGGACCGGTTTTCCCGGTAATCCGTATTTGCA (site AAGAAGACTTG)  recombinant UMI read abundance (log10)       2.73
11  CGTCGTACATGGACCGGTTTTCCCGGTAATCCGTATTTGCT (site CGACGTACTAG)  recombinant UMI read abundance (log10)      0.689
12  TACTTGTCATGGACCGGTTTTCCCGGTAATCCGTATTTGGG (site TACTTGTCTCC)  recombinant UMI read abundance (log10)       0.17
13  CTACTAACATGGACCGGTTTTCCCGGTAATCCGTATTTGGA (site CTAATAACTTC)  recombinant UMI read abundance (log10)       1.38
14  AGCCCAGCATGGACCGGTTTTCCCGGTAATCCGTATTTGTT (site AGCCAAGCTAA)  recombinant UMI read abundance (log10)     0.0134
15  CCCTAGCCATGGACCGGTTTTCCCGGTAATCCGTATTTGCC (site TCCTAGCCTGG)  recombinant UMI read abundance (log10)          0
16  AGCTCGGCATGGACCGGTTTTCCCGGTAATCCGTATTTGGG (site AGCTCAGCTCC)  recombinant UMI read abundance (log10)     0.0161
17  GCATGTGCATGGACCGGTTTTCCCGGTAATCCGTATTTGGT (site GCATGTGCTAC)  recombinant UMI read abundance (log10)       1.79
18  CTGGACACATGGACCGGTTTTCCCGGTAATCCGTATTTGCA (site CTGGACACTTG)  recombinant UMI read abundance (log10)       2.59
